Molecular target: KCNQ2/3 (Homo sapiens, UniProt O43525+O43526)
Construct: expressed in transfected cells; host or cells: CHO cells (hKCNQ-CHO)
Assay: Half-maximal activation voltage left shift assay (whole-cell patch clamp, hKCNQ-CHO cells)
Assay type: cell-based
Conditions: test concentration 50 nM
assay_readout: V1/2 Shift (mV)

Cc1cc(N2CCCc3cc(OC4CCCC4)ccc3C2)cc(C)c1NC(=O)CC(C)(C)C ... −2.92

1. CCC(C)Oc1ccc2c(c1)CCCN(c1cc(C)c(NC(=O)CC(C)(C)C)c(C)c1)C2 (centres unmarked)
2. Cc1cc(N2CCCc3cc(OC(C)C)ccc3C2)cc(C)c1NC(=O)CC(C)(C)C
3. Cc1cc(N2CCCc3cc(O[C@@H](C)C(F)(F)F)ccc3C2)cc(C)c1NC(=O)CC(C)(C)C
4. Cc1cc(N2CCCc3cc(O[C@H](C)C(F)(F)F)ccc3C2)cc(C)c1NC(=O)CC(C)(C)C
# input Form: Sort by [V1/2 Shift (mV)] Order [ ascending ] Return the labels ranked in the requested order, please.
# output 3, 4, 1, 2
